molecular target: Neurogenic locus notch homolog protein 2 (Homo sapiens); experiment: small molecules binding Notch2 protein – biochemical, small-molecule microarray, 635 nm fluorescence, stem cell growth factors, primary screen (AID 1073); conditions: higher = more signal
Property measured: composite z-score
Just the number.

Illustrative cases are given below, each with its answer.
NC(=O)NCC#Cc1ccc2c(c1)[C@]1(C(=O)N2)[C@H](c2ccc(O)cc2)N2[C@H](c3ccccc3)[C@H](c3ccccc3)OC(=O)[C@H]2[C@@H]1C(=O)NC[C@H](O)c1ccccc1
-1.17
CCCNC(=O)[C@@]1(Sc2ccc(C)cc2)CC(=O)N(Cc2ccccc2)[C@@H]1c1ccc(CO)cc1I
0.367
CCCC=C(CCC)[C@@H](NC(=O)Cc1ccccc1)c1ccc(C(=O)OC)cc1
1.13

// switching to the query compound
Exam item: I would be grateful if you could share the reported composite z-score for COc1ccc([Si](C)(C)[C@@H]2[C@@H](CC(=O)N(CCO)Cc3ccccc3)O[C@]3(C(=O)N(Cc4ccc(N5CCOC5=O)cc4)c4ccccc43)[C@H]2C)cc1 .
Marked response: 0.294

This collection of values is drawn from PubChem BioAssay.
